Molecular target: Adenosine receptor A1 (Rattus norvegicus, UniProt P25099)
Assay: Binding affinity towards the adenosine A1 receptor in cerebral cortices of Sprague-Dawley male rats using [3H]CHA as radioligand.
pIC50: −log10 of the molar value.
Classify by pIC50. Ranges: I (below 5), II (5 to below 6), III (6 or more)

A selection of reference data follows.
Cc1nnc2c(N3CCCC3)nc3ccccc3n12: I
Nc1nc2ccc(Cl)cc2n2c(-c3ccccc3)nnc12: III
Cc1nnc2c(NC(C)C)nc3ccc(Cl)cc3n12: III
Nc1nc2cc(F)ccc2n2cnnc12: II
CC(C)Nc1nc2cc(F)ccc2n2cnnc12: II

[in] Quick check: band for `CCc1nnc2c(NC(C)C)nc3cc(F)ccc3n12`
[out] III

[in] Quick check: band for `CCN(CC)c1nc2ccccc2n2c(C(C)C)nnc12`
[out] I

----------
Here's a batch of compounds along with measured log10(IC50) for Adenosine A2 receptor (Rattus norvegicus, UniProt P29276+P30543).
For clarity, the numbers are log10 values of IC50 expressed in µM.

Nc1nc2ccc(Cl)cc2n2c(C(F)(F)F)nnc12: -1.36

Summary for this compound, `CC(C)Nc1nc2ccc(F)cc2n2c(O)nnc12` : log10(IC50) is 0.54

Summary for this compound, `CC(C)Nc1nc2ccc(F)cc2n2c(C(F)(F)F)nnc12` : log10(IC50) is 0.59

Summary for this compound, `CCNc1nc2ccc(OC)cc2n2c(CC)nnc12` : log10(IC50) is 0.65

----------
Biological target: Adenosine receptor A1 (Rattus norvegicus, UniProt P25099)
Sequence (P25099 whole entry): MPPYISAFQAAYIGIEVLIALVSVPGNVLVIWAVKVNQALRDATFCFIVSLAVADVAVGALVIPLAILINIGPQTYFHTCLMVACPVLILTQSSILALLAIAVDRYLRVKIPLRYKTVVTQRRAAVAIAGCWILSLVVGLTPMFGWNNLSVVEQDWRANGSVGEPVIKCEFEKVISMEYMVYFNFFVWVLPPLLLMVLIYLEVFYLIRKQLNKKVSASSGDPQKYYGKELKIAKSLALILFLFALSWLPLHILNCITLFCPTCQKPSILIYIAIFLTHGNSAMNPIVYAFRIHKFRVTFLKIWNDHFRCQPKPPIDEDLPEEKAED
Test: Binding affinity towards the adenosine A1 receptor in cerebral cortices of Sprague-Dawley male rats using [3H]CHA as radioligand.
PROPERTY_NAME: pIC50
As a rule, pIC50 stands for the negative log10 of the concentration, concentration in M.

Nc1nc2ccc(F)cc2n2c(O)nnc12: 6.08
CCNc1nc2cc(F)ccc2n2cnnc12: 4.96
CCNc1nc2cc(F)c(F)cc2n2cnnc12: 5.33
COc1ccc2c(c1)nc(N)c1nncn12: 5.85

Summary for this compound, `CCc1nnc2c(N(CC)CC)nc3ccc(Cl)cc3n12` : pIC50 is 5.19

Summary for this compound, `CCc1nnc2c(NC)nc3ccccc3n12` : pIC50 is 5.22

Summary for this compound, `CCc1nnc2c(N[C@@H](C)Cc3ccccc3)nc3ccc(Cl)cc3n12` : pIC50 is 6.17

Summary for this compound, `CCc1nnc2c(N3CCCCC3)nc3ccccc3n12` : pIC50 is 5.46

Summary for this compound, `CCc1nnc2c(N3CCOCC3)nc3ccccc3n12` : pIC50 is 4.55

Summary for this compound, `Nc1nc2ccc(Cl)cc2n2cnnc12` : pIC50 is 5.47

Summary for this compound, `FC(F)(F)c1nnc2c(NC3CCCC3)nc3ccc(Cl)cc3n12` : pIC50 is 8.26

Summary for this compound, `CC(=O)Nc1nc2ccc(F)cc2n2c(C(F)(F)F)nnc12` : pIC50 is 5.44

Summary for this compound, `CC(C)Nc1nc2ccccc2n2c(C(F)(F)F)nnc12` : pIC50 is 6.77

Summary for this compound, `COc1nnc2c(NC(C)C)nc3ccc(F)cc3n12` : pIC50 is 6.80

Summary for this compound, `CC(C)Nc1nc2ccc(F)cc2n2c(O)nnc12` : pIC50 is 6.14

Summary for this compound, `CCc1nnc2c(Nc3ccccc3)nc3ccc(Cl)cc3n12` : pIC50 is 6.42

Summary for this compound, `CC(=O)Nc1nc2ccc(Cl)cc2n2c(C(F)(F)F)nnc12` : pIC50 is 6.20

----------
Target: Adenosine A2 receptor (Rattus norvegicus, UniProt P29276+P30543)
Please assign NO whenever IC50 is at or above 6 µM, and YES whenever it is below.

A selection of reference data follows.
CCc1nnc2c(Nc3ccccc3)nc3ccc(Cl)cc3n12: NO
CC(C)Nc1nc2ccc(Cl)cc2n2c(-c3ccccc3)nnc12: NO
CCc1nnc2c(N[C@@H](C)Cc3ccccc3)nc3ccc(Cl)cc3n12: NO
CCc1nnc2c(NC(C)C)nc3c(Cl)cccc3n12: NO
CCN(CC)c1nc2ccc(Cl)cc2n2c(C(F)(F)F)nnc12: NO

[in] Identify whether the molecule COc1ccc(C2CNC(=O)C2)cc1OC1CCCC1 (stereo not drawn) [ROLIPRAM] records IC50 below 6 µM.
[out] NO

[in] Identify whether the molecule `FC(F)(F)c1nnc2c(NC3CCCCC3)nc3ccc(Cl)cc3n12` records IC50 below 6 µM.
[out] NO

[in] Identify whether the molecule `CC(C)Nc1nc2ccccc2n2cnnc12` records IC50 below 6 µM.
[out] NO

[in] Identify whether the molecule `COc1nnc2c(NC(C)C)nc3ccc(F)cc3n12` records IC50 below 6 µM.
[out] NO

[in] Identify whether the molecule `CCc1nnc2c(NC3CCCC3)nc3ccc(Cl)cc3n12` records IC50 below 6 µM.
[out] YES

[in] Identify whether the molecule `Nc1nc2ccc(F)cc2n2c(O)nnc12` records IC50 below 6 µM.
[out] YES

[in] Identify whether the molecule `CCc1nnc2c(NC(C)C)nc3ccc(Cl)cc3n12` records IC50 below 6 µM.
[out] YES

[in] Identify whether the molecule `CCNc1nc2ccc(F)cc2n2c(C(F)(F)F)nnc12` records IC50 below 6 µM.
[out] NO

[in] Identify whether the molecule `CCc1nnc2c(NC(C)C)nc3cc(F)ccc3n12` records IC50 below 6 µM.
[out] NO

[in] Identify whether the molecule `CCc1nnc2c(NC(C)C)nc3ccc(F)cc3n12` records IC50 below 6 µM.
[out] YES

[in] Identify whether the molecule `CCNc1nc2ccc(F)cc2n2cnnc12` records IC50 below 6 µM.
[out] NO

[in] Identify whether the molecule CC(C)Cn1c(=O)n(C)c(=O)c2nc[nH]c21 [ISOBUTYLMETHYLXANTHINE] records IC50 below 6 µM.
[out] NO

[in] Identify whether the molecule `CCc1nnc2c(N)nc3cc(OC)ccc3n12` records IC50 below 6 µM.
[out] YES

[in] Identify whether the molecule `CCNc1nc2ccccc2n2c(CC)nnc12` records IC50 below 6 µM.
[out] NO

[in] Identify whether the molecule `CCc1nnc2c(N)nc3ccccc3n12` records IC50 below 6 µM.
[out] YES

[in] Identify whether the molecule `CCc1nnc2c(NC3CCCCC3)nc3ccc(Cl)cc3n12` records IC50 below 6 µM.
[out] YES

[in] Identify whether the molecule `COc1ccc2c(c1)nc(N)c1nncn12` records IC50 below 6 µM.
[out] YES

Values were extracted from ChEMBL document CHEMBL1124880.
